Assay Notes: Half life in rat at 8 mg/kg, po
Type: ADME, organism-based
Parameters: dose 8 mg/kg, route oral
Condition Label: in vivo
Readout Type: half-life (h)
Your answer is read as h, so omit the unit and give the number.

// recorded half-life for `Cn1cnc2ccc(-c3ccc(Cl)cc3Cl)c(CN)c21` : 4.4

* * *

Assay Notes: Bioavailability in rat at 8.4 mg/kg, po
Type: ADME, organism-based
Condition Label: in vivo
Readout Type: bioavailability (%)
Provide the reading as a plain figure in %.

`Cn1c(=O)[nH]c2ccc(-c3ccccc3Cl)c(CN)c21` yielded bioavailability of 49

* * *

Assay Notes: in vitro
Condition Label: rat, liver microsomes
The compounds listed here are annotated with their half-life.
The figure you give is taken to be in min; do not add the unit.

Completed entries (count: 5):
>>> df
                              entry_smiles  readout_type  unit_name  recorded_number
0        NCc1c(-c2ccccc2Cl)ccc2ncn(CCO)c12     half-life        min               32
1  NCc1c(-c2ccccc2Cl)ccc2ncn(Cc3ccccc3)c12     half-life        min                4
2          Cn1nnc2ccc(-c3ccccc3Cl)c(CN)c21     half-life        min               13
3       COCc1nc2ccc(-c3ccccc3Cl)c(CN)c2n1C     half-life        min               11
4             Cc1ccccc1-c1ccc2ncn(C)c2c1CN     half-life        min               28

Here is another compound to look at.
Lab note: `Cn1c(=O)[nH]c2ccc(-c3ccccc3Cl)c(CN)c21` gave half-life of 76

* * *

Assay Notes: in vitro
Condition Label: human, liver microsomes
Readout Type: half-life (h)
Write the answer as a number in h, unit excluded.

Example results:
                               entry_smiles  readout_type  recorded_number
0           Cn1cnc2ccc(-c3ccccc3CO)c(CN)c21     half-life             1.67
1              Cc1ccccc1-c1ccc2ncn(C)c2c1CN     half-life             3.05
2           Cn1nnc2ccc(-c3ccccc3Cl)c(CN)c21     half-life            0.483
3   NCc1c(-c2ccccc2Cl)ccc2ncn(Cc3ccccc3)c12     half-life            0.133
4             Cn1cnc2ccc(-c3ccccc3)c(CN)c21     half-life             1.55
5  Cn1c(-c2cccnc2)nc2ccc(-c3ccccc3Cl)c(CN)c21     half-life              1.6
6       Cn1cnc2cc(Br)c(-c3ccccc3Cl)c(CN)c21     half-life             2.93

Sample `NCc1c(-c2ccc(Cl)cc2Cl)ccc2nc[nH]c12` ; half-life observed: 2.15

* * *

half-life: recorded values
Assay Notes: in vitro
Condition Label: rat, liver microsomes
Provide only the numeric value, understood in min.

                          entry_smiles  readout_type  recorded_number
0  Cn1cnc2ccc(-c3ccc(Cl)cc3Cl)c(CN)c21     half-life               46
1      Cn1cnc2ccc(-c3ccccc3CO)c(CN)c21     half-life               39

Entry under test: `Cn1cnc2cc(C#N)c(-c3ccccc3Cl)c(CN)c21` . Its half-life was 38

For reference, reported half-life for `NCc1c(-c2ccc(Cl)cc2Cl)ccc2nc[nH]c12` stands at 46

Form field half-life, entry `Cn1c(-c2cccnc2)nc2ccc(-c3ccccc3Cl)c(CN)c21` : 26

* * *

Assay Notes: Volume of distribution at steady state in rat at 1.0 mg/kg, iv or 11.6 mg/kg, po
Assay type: ADME, organism-based
Condition Label: in vivo, read-out: Vdss
Readout Type: Vd
# do not omit the unit; it follows the number

Query `Cn1cnc2cc(C#N)c(-c3ccccc3Cl)c(CN)c21` yields Vd of 1.07 L/kg

* * *

Assay Notes: AUC in rat at 8.4 mg/kg, po
Type: ADME, organism-based
Set-up: dose 8.4 mg/kg, route oral
Condition Label: plasma
Readout Type: AUC (ng·h/mL)
Write the answer as a number in ng·h/mL, unit excluded.

Looking up `Cn1c(=O)[nH]c2ccc(-c3ccccc3Cl)c(CN)c21` , I found its AUC recorded as 9000

* * *

Assay Notes: AUC in rat at 11.6 mg/kg, po
Type: ADME, organism-based
Set-up: dose 11.6 mg/kg, route oral
Condition Label: plasma
Readout Type: AUC (ng·h/mL)
The figure you give is taken to be in ng·h/mL; do not add the unit.

Entry `Cn1cnc2cc(C#N)c(-c3ccccc3Cl)c(CN)c21` , AUC reported as 22100

* * *

Assay Notes: Bioavailability in rat at 11.6 mg/kg, po
Format: ADME, organism-based
Condition Label: in vivo
Readout Type: bioavailability (%)
Write the number in % without appending the unit.

get_value(item= `Cn1cnc2cc(C#N)c(-c3ccccc3Cl)c(CN)c21` , readout=bioavailability) returns 122

* * *

Assay Notes: Half life in rat at 0.8 mg/kg, iv
Assay type: ADME, organism-based
Parameters: dose 0.8 mg/kg, route intravenous
Condition Label: in vivo
Readout Type: half-life (h)
Write it as a number; the unit h goes unstated.

// `Cn1cnc2ccc(-c3ccc(Cl)cc3Cl)c(CN)c21` : half-life value = 7

* * *

Assay Notes: Half life in rat at 0.7 mg/kg, iv
Type: ADME, organism-based
Design: dose 0.7 mg/kg, route intravenous
Condition Label: in vivo
Readout Type: half-life (h)
// note: answer is a bare numeric in h

Measured half-life of `Cn1c(=O)[nH]c2ccc(-c3ccccc3Cl)c(CN)c21` : 4.2

* * *

Assay Notes: Volume of distribution at steady state in rat at 0.8 mg/kg, iv or 8 mg/kg, po
Format: ADME, organism-based
Condition Label: in vivo, read-out: Vdss
Readout Type: Vd
Field note: include the unit after the figure.

Measured Vd, `Cn1cnc2ccc(-c3ccc(Cl)cc3Cl)c(CN)c21` : 4.81 L/kg

* * *

Assay Notes: AUC in rat at 8 mg/kg, po
Assay type: ADME, organism-based
Set-up: dose 8 mg/kg, route oral
Condition Label: plasma
Readout Type: AUC (ng·h/mL)
Output spec: scalar in ng·h/mL, unitless text.

// AUC value for `Cn1cnc2ccc(-c3ccc(Cl)cc3Cl)c(CN)c21` : 11500

* * *

Assay Notes: in vitro
Condition Label: rat, liver microsomes
# Lookup of reported half-life keyed by entry
Lab book: enter the figure in min, no units written.

See these solved cases before continuing.
In [3]: df
Out[3]:
                           entry_smiles  unit_name  recorded_number
0  CCn1cnc2ccc(-c3ccc(Cl)cc3Cl)c(CN)c21        min               42
1   Cn1cnc2cc(Br)c(-c3ccccc3Cl)c(CN)c21        min               24
2       Cn1cnc2ccc(-c3ccccc3Cl)c(CN)c21        min               57

Form field half-life, entry `Cn1cnc2ccc(-c3ccccc3)c(CN)c21` : 46

Per the record, `CCc1nc2ccc(-c3ccccc3Cl)c(CN)c2n1C` has half-life of 2

get_value(item= `Cc1nc2ccc(-c3ccccc3Cl)c(CN)c2n1C` , readout=half-life) returns 7

* * *

Assay Notes: Half life in rat at 8.4 mg/kg, po
Type: ADME, organism-based
Parameters: dose 8.4 mg/kg, route oral
Condition Label: in vivo
Readout Type: half-life (h)
Answer format: numeric, h implied, no suffix.

Reported half-life of `Cn1c(=O)[nH]c2ccc(-c3ccccc3Cl)c(CN)c21` : 4

* * *

Assay Notes: Half life in rat at 11.6 mg/kg, po
Assay type: ADME, organism-based
Parameters: dose 11.6 mg/kg, route oral
Condition Label: in vivo
Readout Type: half-life

response.value for `Cn1cnc2cc(C#N)c(-c3ccccc3Cl)c(CN)c21` (field: half-life) = 174 min
